subject-of-test: recombinant human ALK5 (TGF-βR1) protein (Homo sapiens, UniProt P36897)
Construct: purchased Life Technologies PR9075A
Sequence (P36897 34-503): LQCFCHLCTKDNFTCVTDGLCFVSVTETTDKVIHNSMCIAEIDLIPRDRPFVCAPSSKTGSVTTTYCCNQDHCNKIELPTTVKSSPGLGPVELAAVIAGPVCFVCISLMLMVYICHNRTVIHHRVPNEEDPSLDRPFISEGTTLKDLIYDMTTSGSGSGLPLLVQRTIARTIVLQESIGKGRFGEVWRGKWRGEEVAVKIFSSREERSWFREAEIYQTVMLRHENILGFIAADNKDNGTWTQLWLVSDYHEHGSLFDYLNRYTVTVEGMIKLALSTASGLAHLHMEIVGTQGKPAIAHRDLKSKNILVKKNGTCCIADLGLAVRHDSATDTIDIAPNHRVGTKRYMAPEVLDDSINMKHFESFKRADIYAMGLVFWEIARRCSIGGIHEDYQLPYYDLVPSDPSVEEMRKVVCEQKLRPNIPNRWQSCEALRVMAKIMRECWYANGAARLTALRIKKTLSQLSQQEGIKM
run-description: Biochemical ALK5 (TGF-βR1) assay to measure pKi (LANCE Ultra ULight kinase assay)
condition-description: apparent pKi from pIC50 by Cheng-Prusoff, read-out: ALK5 pKi (converted)
result-type: Ki

Consider the reported Ki for these compounds:
{"columns": ["compound", "subject-of-test", "Ki"],
 "data": [
  ["Cc1cccc(-c2n[nH]cc2-c2ccc3nccc(N4CCC(N(C)C)C4)c3c2)n1 (racemic) [Compound 867]", "recombinant human ALK5 (TGF-βR1) protein (Homo sapiens, UniProt P36897)", "398 to 3160 pM"],
  ["Cc1cccc(-c2[nH]ncc2-c2ccc3ncc(C(=O)OC4CCC5(CNC5)C4)cc3n2)n1 (stereo not shown) [Compound 62]", "recombinant human ALK5 (TGF-βR1) protein (Homo sapiens, UniProt P36897)", "39.8 to 316 pM"],
  ["CNCCn1cc(-c2cnc3ccc(-c4c(-c5cccc(C)n5)n[nH]c4N)nc3c2)cn1 [Compound 512]", "recombinant human ALK5 (TGF-βR1) protein (Homo sapiens, UniProt P36897)", "39.8 to 316 pM"],
  ["CNCCn1cc(-c2cnc3ccc(-c4c(-c5cccc(C)n5)nnn4CC(=O)O)nc3c2)cn1 [Compound 630]", "recombinant human ALK5 (TGF-βR1) protein (Homo sapiens, UniProt P36897)", "398 to 3160 pM"]
]}

Given item Cc1cccc(-c2[nH]cnc2-c2ccc3ncc(C(=O)O)cc3c2)n1 [Compound 796] , the value recorded as its Ki is 3980 to 31600 pM

Given item Cc1cccc(-c2[nH]cnc2-c2ccc3ncc(-c4csc(C(=O)OC[C@@H]5CCC[C@@H](N)C5)c4)cc3c2)n1 (racemic) [Compound 1215] , the value recorded as its Ki is < 31.6 pM

Given item Cc1nc(-c2n[nH]cc2-c2ccc3ncc(-c4nc5c([nH]4)CCNCC5)cc3n2)ccc1F [Compound 611] , the value recorded as its Ki is < 31.6 pM
